- Test system: DeltatarO mutant
- PROTOCOL: S. aureus survival, RN4220 and DeltatarO strains – OD600, teichoic acid synthesis inhibitors, primary screen (AID 463173)
- CONDITIONS_USED: S. aureus RN4220 wild type/DeltatarO growth, OD600, 18 h, stronger effect = lower value, screened at 18.75 µg/mL (by protocol)
Among all 52,000 compounds or so, about 4,300 (8.3%) were called active. Only a selection was taken, and actives are over-represented in it overall.
REPORTED_METRIC: survival (%)

| MOLECULE | READOUT_NUMBER |
| --- | --- |
| Cc1cc2oc(C(=O)Nc3sc4c(c3C(=O)NCC3CCCO3)CCCC4)cc(=O)c2cc1C (stereo unspecified) | 47 |
| Cc1ccc(CCNc2nc3ccccc3c3nc(-c4cccnc4)nn23)cc1 | 66 |
| Cc1ccc(Cl)cc1N1CCN(CCCNc2ncnc3onc(-c4ccc(F)cc4)c23)CC1 | 80 |
| CCOc1ccc(NS(=O)(=O)c2ccc3[nH]cc(C(=O)N4CCCC4)c(=O)c3c2)cc1 | 85 |
| CCCCNC(=O)CCC(=O)NNc1nc2ccccc2c2nc(-c3ccccc3)nn12 | 78 |
| COc1ccc2c(CNCCc3cccs3)c(C(=O)O)n(Cc3ccccc3C)c2c1 | 94 |
| O=C(Nc1ccc2nc(SCC(=O)N3CCCC3)sc2c1)c1ccc(Br)cc1 | 92 |
| COc1cc(-c2nc(Cn3nnc(C(=O)Nc4cccc(Cl)c4)c3C)c(C)o2)cc(OC)c1OC | 80 |
| COc1cc2nc(NCCc3ccc(Cl)cc3)n3nc(-c4ccccc4)nc3c2cc1OC | 51 |
| COc1ccccc1C1CC(=O)N(c2cccc(C(F)(F)F)c2)C2=C1C(=O)OC2 (stereo unspecified) | 56 |
| CC1=C(C(=O)Nc2ccc(Cl)cc2)C(c2cccs2)n2nc(SCc3cccc(Cl)c3)nc2N1 (stereo unspecified) | 89 |
| CCCOc1ccc(-c2nc(N3CCCCC3)c3ccccc3n2)cc1 | -2 |
| O=c1n(Cc2ccc(Cl)cc2)c2ccccc2c2nc(-c3ccccc3)nn12 | 95 |
| Cc1ccc(CCNc2nc3ccccc3c3nc(-c4ccccc4)nn23)cc1 | 44 |
| CCOc1ccc(/C=C/c2nc(C#N)c(NC(C)CC)o2)cc1 (stereo unspecified) | 68 |
| O=C(Nc1noc2ccccc12)c1c(F)cccc1F | 87 |
| Cc1cccc(N2CCN(S(=O)(=O)c3c(C)[nH]c(=O)[nH]c3=O)CC2)c1C | 84 |
| Cc1ccc2c(=O)cc(C(=O)Nc3sc4c(c3C(=O)NCC3CCCO3)CCCC4)oc2c1 (stereo unspecified) | 71 |
| CCCCNc1nc2ccccc2c2nc(-c3ccccc3)nn12 | -1 |
| CC(C)(C)OC(=O)N1CC2C(C1)C2NC(=O)c1nsc(Cl)c1Cl (stereo unspecified) | 82 |
| Cc1ccc(-c2nc(N3CCN(c4ccccc4Cl)CC3)c3ccccc3n2)cc1 | 52 |

====

- Tested on: DeltatarO mutant
- PROTOCOL: S. aureus survival, RN4220 and DeltatarO strains – OD600, teichoic acid synthesis inhibitors, primary screen (AID 463173)
- CONDITIONS_USED: S. aureus RN4220 wild type/DeltatarO growth, OD600, 18 h, stronger effect = lower value, screened at 18.75 µg/mL (by protocol)
Screen size: about 52,000 compounds; about 4,300 (8.3%) were called active. The entries come from a sample that favours actives as a whole.
Assign classes using reported survival values and the ranges I (below 70%), II (70% to below 90%), III (90% or more), please.

| COMPOUND | GROUP |
| --- | --- |
| Cc1ccc(C(=O)NCCC(C)C)cc1NC(=O)c1nsc2ccccc12 | II |
| CCc1ccccc1N1C(=O)N(CC(=O)c2ccc(OC)cc2)c2ccccc2S1(=O)=O | II |
| O=C(NCC(c1cccnc1)N1CCc2ccccc21)c1ccc(Cl)cc1 (configuration not stated) | I |
| CCCC(O)=NS(=O)(=O)c1ccc(N=NN(C)C)cc1 | III |
| COc1ccc(-c2nc3c(C#N)c[nH]n3c2NC2CCCC2)c(OC)c1 | I |
| CCN(Cc1ccccc1)Cc1c(O)ccc2c(=O)c(-c3ccccc3Cl)c(C(F)(F)F)oc12 | II |
| CC(C)OC(=O)Cn1nnc(-c2ccccc2)n1 | II |
| Cc1ccc(C(=O)NCC(c2cccnc2)N2CCc3ccccc32)cc1C (configuration not stated) | I |
| COc1ccc(C2C(C(=O)Nc3ccc(C)cc3C)=C(C)Nc3nc(SCc4cccc(C)c4)nn32)c(OC)c1 (configuration not stated) | III |
| COc1ccc(N2CCN(C(=O)CNC3CC3)CC2)cc1 | II |
| COC(=O)C1(C)NC(c2ccccc2C)C2C(=O)N(C)C(=O)C21 (configuration not stated) | I |
| CC1=C(C(=O)Nc2ccccc2C)C(c2ccco2)n2ncnc2N1 (configuration not stated) | III |
| COC(=O)C1(C(C)C)NC(c2ccccc2OC)C2C(=O)N(C)C(=O)C21 (configuration not stated) | II |
| CCN=C1S/C(=C\c2cn(CC(=O)NCCOC)c3ccccc23)C(=O)N1CC | III |
| COc1ccc(NC(=O)CS(=O)CC(=O)NC2CCCc3ccccc32)cc1 (configuration not stated) | I |
| Cn1c(=O)[nH]c(=O)c2c1nc(CN1CCN(c3ccccc3F)CC1)n2Cc1ccc(F)cc1 | III |
| CCc1ccc2[nH]c(=O)c(C(c3nnnn3C3CCCC3)N(Cc3ccccc3)Cc3ccco3)cc2c1 (configuration not stated) | III |
| COc1ccc(C(=O)NCC(c2cccnc2)N2CCc3ccccc3C2)cc1 (configuration not stated) | II |
| CCOc1ccc(NC(=O)C2CCCN(c3nn4cc(-c5ccc(OC)cc5)nc4s3)C2)cc1 (configuration not stated) | III |
| Cc1nc2nc(NC(=O)c3ccc(C(C)(C)C)cc3)[nH]n2c(=O)c1Cl | III |
| COc1ccc(C(=O)NCC(c2cccnc2)N2CCc3ccccc32)cc1 (configuration not stated) | I |
| COc1ccccc1OCC(=O)N(Cc1ccco1)Cc1ccccc1F | I |
| COc1cccc(-c2nc3c(C#N)c[nH]n3c2NC2CCCC2)c1OC | I |
| COc1ccccc1NC(=O)NC1(C(=O)N2CCCCC2)CCCCC1 | II |
| Cc1cccc(N2CCN(c3ncnc4c3nc3n4CCCCC3)CC2)c1C | III |
| O=C(C1CCC(CNS(=O)(=O)c2ccc(Br)s2)CC1)N1CCN(c2ccc(F)cc2)CC1 (configuration not stated) | II |
| CCn1cc2nc(SCc3cccc(C(F)(F)F)c3)n(Cc3ccc(Cl)cc3)c(=O)c2n1 | III |
| COc1cccc(-c2nc3c(C#N)c[nH]n3c2NC2CCCCC2)c1OC | I |
| COc1cc(NC(=O)CC2C(=O)N(c3cccc(C)c3)C(=O)N2Cc2ccco2)cc(OC)c1 (configuration not stated) | III |
| Cc1nn2c(=O)cc(COC(=O)COc3ccccc3C)nc2s1 | III |
| Cc1nc2ccc(S(=O)(=O)NCC(=O)Nc3ccc(F)cc3F)cc2s1 | III |
| Cc1ccccc1C(=O)NCC(c1cccnc1)N1CCc2ccccc21 (configuration not stated) | I |
| COc1ccccc1C(O)(C(=O)NNc1cccc(Br)n1)c1ccccc1OC | II |
| Cc1ccc(-c2nnc(Nc3ccccc3O)c3ccccc23)cc1 | I |
| COc1ccc(Cl)cc1NC(=O)CSC1=Nc2ccccc2C2=NC(CC(=O)NCc3ccc4c(c3)OCO4)C(=O)N12 (configuration not stated) | II |
| COc1ccc(OC)c(-c2noc(N3CCN(c4cc(C)ccc4C)CC3)n2)c1 | II |
| COc1cc(C(=O)NCC(c2cccnc2)N2CCc3ccccc3C2)cc(OC)c1OC (configuration not stated) | II |
| CC(=O)c1cccc(NC(=O)c2ccc(Cl)c(S(=O)(=O)N3CCOCC3)c2)c1 | II |
